Assay: NCI Yeast Anticancer Drug Screen. Data for the wt1 strain (AID 149);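 further: 0% = growth of vehicle-treated wt1 cultures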
Conditions: S. cerevisiae wt1 strain (SPY 50644) growth inhibition; at 100.0 µM; hits give high values
Method: Growth inhibition of yeast strains with defined genetic alterations is measured as a screen for potential anti-cancer activity. Selected strains with alterations in DNA damage repair or cell cycle control were exposed to compounds and growth inhibition was measured relative to vehicle treated controls. The strain used in this assay is wt1
About 79,000 compounds went through this panel and 15% of them were active in at least one assay; those are over-represented in the sample as a whole.
Property: growth inhibition (%)
Give a bare numeral; the unit % is implied.

N/C(=N\OC(=O)NC(Cl)=C(Cl)Cl)c1cc(C(F)(F)F)cc(C(F)(F)F)c1
97
CC(C)/C(Cl)=N\OC(=O)Nc1cccc(Cl)c1
1
CCC(=O)Oc1c(Cl)cc(Cl)c2ccccc12
13
O=C1C=CC(=C(c2ccccc2)c2ccccc2)c2ccccc21
4
S=C(S)NN1CCOCC1
60
O=C(O)C1OC1(c1cccc(Cl)c1)c1ccccc1Cl (configuration not stated)
93

Lookup result for CN1c2ccc(Cl)cc2C(=O)NC1c1ccc([N+](=O)[O-])s1 (configuration not stated) ; measured growth inhibition: 96

What the record says about CCCS(=O)(=O)Nc1ccc(Nc2c3ccccc3nc3ccccc23)c(OC)c1 : growth inhibition is 66

# molecule COc1ccc2nc3c([N+](=O)[O-])ccc(NCCN(C)C)c3c(NCCN(C)C)c2c1 ; its growth inhibition = 0

Item: CC1(C)C(=O)OC(n2cc(F)c(=O)[nH]c2=O)C1=O (configuration not stated) | growth inhibition: 1

// recorded growth inhibition for Cc1ccc(S(=O)(=O)Oc2cc(Cl)c(Cl)cc2Cl)cc1 : -12

growth inhibition for O=C(NNc1ccnc2cc(Cl)ccc12)/C(=C\c1ccccc1Cl)NC(=O)c1ccccc1 is 28

---

Test: NCI Yeast Anticancer Drug Screen. Data for the rad18 strain (AID 177)
Conditions: S. cerevisiae rad18 mutant growth inhibition; at 100.0 µM
This is part of a sample that, as a whole, favours compounds with a hit. Of some 79,000 tested, about 15% had one in any assay. The source made the active and inactive calls. No stated cut-off is given here; in the data, active means growth inhibition above about 70%; inactive means the rest.
Reply using exactly one outcome from active, inactive

Call for entry NNc1c(F)c(F)cc(F)c1F : inactive

Dear colleague, could you share the recorded outcome for OC(c1ccc(F)cc1)(c1ccc(F)cc1)C1CC1 when you have a moment? active

Assay outcome for Cc1[nH]c2ccccc2c1C(c1ccc(N)cc1)c1c(C)[nH]c2ccccc12 : what was it? inactive

Hi, sorry to bother you, what did the test record for CCCCCCCCC/C=C/C=C/C(=O)NCC(=O)NC1C(O)C(O)C(Nc2ncnc3nc[nH]c23)OC1C(O)CO (stereo not given) ? inactive

Each molecule tested received a call. Report the one for O=[N+]([O-])CC(SCc1ccccc1)c1ccc2c(c1)OCO2 (stereo not given) . active

---

Assay: NCI Yeast Anticancer Drug Screen. Data for the rad50 strain (AID 155);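 further: 0% = growth of vehicle-only cultures of the same strain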
Details: S. cerevisiae rad50 strain growth inhibition; at 11.0 µM; hits give high values
Compounds without any hit were thinned out: in the full panel of roughly 79,000, 15% have a hit.
Classify by measured growth inhibition: T if it is equal to or exceeds 20%, F if it is smaller.

O=C(O)CNc1ccc(Cl)c(Cl)c1
F
COC(=O)CSSCc1ccc([N+](=O)[O-])cc1
T
CCC(C(=O)O)C1=C(c2ccccc2)CCc2ccccc21 (configuration not stated)
T
O=C(O)c1ccccc1NC(=S)c1ccccc1
F
CC(=O)Oc1cc(-c2cc(OC(C)=O)c(OC(C)=O)c3ccccc23)c2ccccc2c1OC(C)=O
F

Kindly determine if growth inhibition recorded for C/C(=N\NC(=S)N1CCCCC1)c1cccc(C)n1 is above or exactly 20%. T

Please check the record O=[N+]([O-])c1ccc2nc3ccccc3cc2c1 and state if its growth inhibition is at or above 20%. T

Exam item: decide whether the reported growth inhibition for C#CCCCc1ccccc1 is at least 20%. F

Determine whether measured growth inhibition meets or exceeds 20% for COc1ccc2nc3c([N+](=O)[O-])ccc(NCCN(C)C)c3c(NCCN(C)C)c2c1 F

Say whether c1ccc(-c2nc3cccnc3s2)cc1 shows growth inhibition of 20% or more. F

Would you say O=CNc1ccc2c(c1)C(=O)c1ccccc1-2 shows growth inhibition at minimum 20%? T

Determine whether measured growth inhibition meets or exceeds 20% for COc1cc2c3c(cccc3c1)C(=O)N(CCN(C)C)C2=O T

Hi team, for CC(C)c1cc(C(C)C)c(O)c(C([O-])[O-])c1.CC(C)c1cc(C(C)C)c(O)c(C([O-])[O-])c1.CC(C)c1cc(C(C)C)c(O)c(C([OH2+])[OH2+])c1.CC(C)c1cc(C(C)C)c(O)c(C([OH2+])[OH2+])c1.[Cu+2].[Cu+2].[OH3+].[OH3+] , is the recorded growth inhibition at or above 20%? T

Can O=C(COC(=O)c1cc(O)c(O)c(O)c1)c1ccc(-c2ccccc2)cc1 be said to have growth inhibition at or above 20%? F

API: above_or_equal(metric=growth inhibition, cutoff=20%) for item COc1ccc(-c2cn(-c3ccc(I)cc3)c3ncnc(N)c23)cc1 F

Could you tell me if the measured growth inhibition of O=c1c2ccccc2ncn1COCc1ccccc1 reaches 20% or more? F

Hi team, for COC1=CC(=O)C2C(C1=O)C(c1ccc(Cl)cc1)[C@@H]2C (some centres not stated) , is the recorded growth inhibition at or above 20%? T

Determine whether this molecule has growth inhibition no lower than 20%: O=C1c2ccccc2C(=O)c2c(NC3CCCCC3)ccc(Nc3ccc(S(=O)(=O)O)cc3)c21 F

Is growth inhibition for COc1cc(C2c3cc4c(cc3OC(Nc3ccccc3)C2C)OCO4)cc(OC)c1O (configuration not stated) at or above 20%? F

Please check the record O=C(N=Nc1ccccc1Cl)NNc1ccccc1Cl and state if its growth inhibition is at or above 20%. F

Hi team, for COC1=CC(=O)C(C2(OC(C)C)OC(=O)C(Cl)=C2Cl)=CC1=O (configuration not stated) , is the recorded growth inhibition at or above 20%? T

Hi team, for FC(F)(F)c1nc2nc(Cl)c(Cl)nc2n1CCCN1CCOCC1 , is the recorded growth inhibition at or above 20%? F

---

Assay: NCI Yeast Anticancer Drug Screen. Data for the mec2-1 strain (AID 157)
Details: S. cerevisiae mec2-1 strain, at 33.0 µM, hits give high values
About 79,000 compounds went through this panel and 15% of them were active in at least one assay; those are over-represented in the sample as a whole.
Threshold rule: growth inhibition greater than or equal to 20% is true; below that, false.

CCN(CC)CCC(=O)c1ccc(Oc2ccc(F)cc2)cc1
true
CCN(CC)[P+](c1ccccc1O)(N(CC)CC)N(CC)CC
true
O=[N+]([O-])c1cc(CCl)ccc1CCl
true
COc1ccc(/C=C2\SC(=S)N(/C=C/c3nc4ccccc4[nH]c3=O)C2=O)cc1OC
true
Cc1ccc(S(=O)(=O)NNC(=S)Nc2cccc3ccccc23)cc1
false
O=C1C(Nc2ccccc2)=C(Oc2ccccc2)C(=O)c2ccccc21
false

In plain terms: is recorded growth inhibition at least 20% for COP(=O)(OC)/C(=C\C1=CN(C(c2ccccc2)(c2ccccc2)c2ccccc2)CN1)NC=O ? true

Please tell me: is the compound CN(C)CCOc1ccc2c(c1)C/C(=C/c1ncc([N+](=O)[O-])n1C)C2=O at or over 20% in terms of growth inhibition? true

Tell me whether growth inhibition is at least 20% here: Nc1ccn(C2OC(CO)C3[O][Sn]([c]4ccccc4)([c]4ccccc4)[O]C32)c(=O)n1 (stereo not given) false

Record FC(F)(F)c1nc2nc(Cl)c(Cl)nc2n1CCCN1CCOCC1 ; criterion: growth inhibition no lower than 20%. Met? false

---

Test: NCI Yeast Anticancer Drug Screen. Data for the wt2 strain (AID 169);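 further: 0% = growth of vehicle-treated yeast cultures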
Details: S. cerevisiae wt2 strain growth inhibition; at 1.2 µM; hits give high values
Compounds without any hit were thinned out: in the full panel of roughly 79,000, 15% have a hit.
Catalogue of growth inhibition values
Kindly provide the numeric value in % only, without the unit symbol.

COC1=CC(=O)C(C2(OC(C)C)OC(=O)C(Cl)=C2Cl)=CC1=O (stereo unspecified)
-1

For this molecule ( O=C1c2ccccc2C(=O)c2cc(CBr)ccc21 ), measured growth inhibition is 9

Recorded result, NC(N)=N/N=C\c1c2ccccc2cc2ccccc12 , growth inhibition: -47

---

Assay: NCI Yeast Anticancer Drug Screen. Data for the sgs1 mgt1 strain (AID 161);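 further: 0% = growth of cultures given vehicle only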
Conditions: S. cerevisiae sgs1 mgt1 strain, at 50.0 µM (retest, dose inferred, filed as 5.0), hits give high values
About 79,000 compounds went through this panel and 15% of them were active in at least one assay; those are over-represented in the sample as a whole.
Record fulfilled whenever growth inhibition is at 20% or higher; record not fulfilled when lower.

O=C1C(Nc2ccccc2)=C(Oc2ccccc2)C(=O)c2ccccc21
not fulfilled
COc1ccc(Br)c(C(=O)Sc2nnnn2-c2cccc(Cl)c2)c1
fulfilled
OC(COc1cccc2ccccc12)CN1CCOCC1 (stereo unspecified)
fulfilled
Cc1ccc(Cl)c2[nH]c(-c3ccccc3)cc(=O)c12
not fulfilled
[N-]=N[N+]#I1OC(C(F)(F)F)(C(F)(F)F)c2ccccc21
fulfilled

Can Cc1ccc(S(=O)(=O)NC(=O)NC2=NC(C)(C)N(c3ccc(Cl)c(Cl)c3)C(N)=N2)cc1 be said to have growth inhibition at or above 20%? not fulfilled

Could you please find out whether Cc1ccc(S(=O)(=O)Oc2cc(Cl)c(Cl)cc2Cl)cc1 has growth inhibition that meets 20% or exceeds it? fulfilled

Check if growth inhibition >= 20% (inclusive). Item: CCOC(=O)c1cnc2cc(C(F)(F)F)ccc2c1N=[N+]=[N-] not fulfilled

Dear colleague, could you confirm whether O=[N+]([O-])c1cccc2nc3ccccc3c(NCCCN3CCOCC3)c12 has growth inhibition at or above 20%? fulfilled

growth inhibition >= 20% for BrCC[P+](c1ccccc1)(c1ccccc1)c1ccccc1 ? fulfilled

Does growth inhibition meet or surpass 20% for CC(C)c1ccccc1NC(=O)/C(Cl)=C(\Cl)C(=O)O ? not fulfilled
